// ΔTm lookup, one value per entry
MEASURED ON: Glycogen synthase kinase-3 beta (Homo sapiens)
CONDITION SET: Compound concentration 20.0 uM
Description: Thermal Shift Assay. Domain: start/stop: M26-R383
RECORDED ENDPOINT: ΔTm (°C)

MOLECULE SMILES | RECORDED ENDPOINT | READOUT UNIT | RECORDED NUMBER
COC[C@@H]1CCCN1S(=O)(=O)c1ccc2c(c1)C(=O)C(=O)N2 | ΔTm | °C | -0.2
CC(=O)N[C@@H](CCCCNC(=O)CSCCNC(=O)CCNC(=O)[C@H](O)C(C)(C)COP(=O)(O)OP(=O)(O)OC[C@H]1O[C@@H](n2cnc3c(N)ncnc32)[C@H](O)[C@@H]1OP(=O)(O)O)C(N)=O | ΔTm | °C | -0.08
CCC[C@@H]1CNCc2c1[nH]c(=O)c(C#N)c2N1CCC2(CC1)CC2 | ΔTm | °C | 0.07
CN1CCc2c(n(Cc3ccc(C(=O)NO)cc3)c3ccccc23)C1 | ΔTm | °C | -0.89
